test: Oral bioavailability in CD-1 mouse at 50 mg/kg incubated upto 24 hrs by LC-MS/MS analysis
Assay type: ADME, organism-based
test.conditions: in vivo
experimental.readout: bioavailability (%)
Answer format: numeric, % implied, no suffix.

Query bioavailability for CN1CCC(NC(=O)OCC#Cc2cc(F)c(OCc3nnc(S[C@H]4C=CCCC4)n3-c3cccnc3)cc2F)CC1 17

----------
test: Volume of distribution at steady state in CD-1 mouse at 5 mg/kg, iv incubated upto 24 hrs by LC-MS/MS analysis
Type: ADME, organism-based
test.conditions: in vivo, read-out: Vdss
experimental.readout: Vd (L/kg)
Answer format: numeric, L/kg implied, no suffix.

Query Vd for CN1CCC(NC(=O)OCC#Cc2cc(F)c(OCc3nnc(S[C@H]4C=CCCC4)n3-c3cccnc3)cc2F)CC1 5.9
